measured_target: IgG receptor FcRn large subunit p51 (Homo sapiens, UniProt P55899)
Sequence (P55899 whole entry): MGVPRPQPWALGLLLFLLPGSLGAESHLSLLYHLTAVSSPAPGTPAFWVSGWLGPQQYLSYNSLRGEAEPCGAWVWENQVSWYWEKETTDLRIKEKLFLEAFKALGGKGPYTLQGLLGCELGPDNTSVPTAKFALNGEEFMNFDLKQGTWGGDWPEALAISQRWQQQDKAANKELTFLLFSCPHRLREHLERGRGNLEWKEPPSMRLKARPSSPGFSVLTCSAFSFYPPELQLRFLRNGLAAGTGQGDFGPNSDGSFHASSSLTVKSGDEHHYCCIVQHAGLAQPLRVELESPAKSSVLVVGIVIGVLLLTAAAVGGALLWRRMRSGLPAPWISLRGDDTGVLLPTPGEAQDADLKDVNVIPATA
experiment: Inhibition of human IgG binding to soluble human FcRn by ELISA
endpoint_name: IC50 (µM)
Use µM as the unit, but write only the number.

Recorded IC50 for CC(C)C[C@H](NC(=O)Cc1cccc(NC(=O)[C@H](Cc2ccccc2)NC(=O)[C@H](Cc2cnc[nH]2)NC(=O)CNC(=O)[C@@H](NC(=O)[C@@H](NC(=O)[C@H](Cc2ccccc2)NC(=O)[C@@H](N)CCCN=C(N)N)C(C)(C)S)[C@@H](C)O)c1)C(=O)N[C@@H](Cc1ccc(O)cc1)C(=O)N1CCC[C@H]1C(=O)N[C@@H](CS)C(=O)O , please?
14

Recorded IC50 for CC(C)C[C@@H](C(=O)N[C@@H](Cc1ccc(O)cc1)C(=O)N1CCC[C@H]1C(=O)N[C@@H](CS)C(=O)O)N(C)C(=O)CN(C)C(=O)CNC(=O)[C@H](Cc1ccccc1)NC(=O)[C@H](Cc1ccncc1)NC(=O)CNC(=O)[C@@H](NC(=O)[C@@H](NC(=O)[C@H](Cc1ccccc1)NC(=O)[C@@H](N)CCCNC(=N)N)C(C)(C)S)[C@@H](C)O , please?
1.3

Recorded IC50 for CC(C)C[C@H](NC(=O)CNC(=O)CNC(=O)[C@H](Cc1ccccc1)NC(=O)[C@H](Cc1cnc[nH]1)NC(=O)CNC(=O)[C@@H](NC(=O)[C@H](CN)NC(=O)[C@H](Cc1ccccc1)NC(=O)[C@H](CCCNC(=N)N)NC(=O)[C@@H](N)CCC(N)=O)[C@@H](C)O)C(=O)N[C@@H](Cc1ccc(O)cc1)C(=O)N1CCC[C@H]1C(=O)N[C@@H](CC(=O)O)C(=O)N[C@@H](CC(N)=O)C(=O)NCC(=O)N1CCC[C@H]1C(=O)O , please?
120

Recorded IC50 for CC(C)C[C@H](NC(=O)CNC(=O)CNC(=O)[C@H](Cc1ccccc1)NC(=O)[C@H](Cc1cnc[nH]1)NC(=O)CNC(=O)[C@@H](NC(=O)[C@H](NC(=O)[C@@H](Cc1ccccc1)NC(=O)[C@H](CCCN=C(N)N)NC(=O)[C@@H](N)CCC(N)=O)C(C)(C)S)[C@@H](C)O)C(=O)N[C@@H](Cc1ccc(O)cc1)C(=O)N1CCC[C@H]1C(=O)N[C@H](CS)C(=O)N[C@@H](CC(N)=O)C(=O)NCC(=O)N1CCC[C@H]1C(=O)O , please?
11.4

Provenance of the data: ChEMBL document CHEMBL1150419
